- assay-comment: proliferation blockers of H69AR lung cancer cells, primary screen, cell-based, human, 86K library (AID 598);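 also: multidrug resistant small cell line overexpressing MRP-1 efflux transporter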
- condition-info: H69AR lung tumor viability, ATP luminescence, 72 h; at 10 µM
About 5,100 (6%) of roughly 85,000 compounds were called active.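 The calls were made as follows: active = viability at or below 40%; inactive = viability above 40%.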 For the sample, actives were picked, then their nearest neighbours and some compounds at random.
Outcome codes: active, inactive

>>> print(df.to_string())
                              smiles_string  assigned_class
0              O=C(CSCc1ccc(Cl)cc1)N1CCCCC1        inactive
1  Cn1nc(-c2ccccc2)c(-c2nc(-c3ccc(Cl)cc3)no2)c1Cl          active
2  CC(C)Cn1c(CN(Cc2ccccc2)Cc2ccccc2)nc2c1c(=O)n(C)c(=O)n2C        inactive
3  O=C(CC(O)(C(F)(F)F)C(F)(F)F)Nc1ccc(Cl)c(Cl)c1          active
4   CC(C)CCNc1nc(N2CCCC2)c2c(c1C#N)CCN(C)C2          active
5  COc1ccc(-n2nnnc2SCc2nc(N)nc(N3CCOCC3)n2)cc1        inactive
